Reported T/C values for a set of molecules
tested on: CD2F1 mice, L1210 leukemia ip, survival T/C; assay: NCI In Vivo Anticancer Drug Screen. Data for tumor model L1210 Leukemia (intraperitoneal) in CD2F1 (CDF1) mice; details: endpoint: mean survival time; dose: 100.0 mg/kg/injection; schedule: Q01DX001 (ip); vehicle: saline; higher = longer survival
Inconclusive results and toxic doses are left out.
testReadout: T/C

molecule: CC/C1=C/N(C=O)CCc2c([nH]c3ccccc23)C(C(=O)OC)(c2cc3c(cc2OC)N(C)C2C(O)(C(=O)OC)C(OC(C)=O)C4(CC)C=CCN5CCC32C54)CC(=O)C1 (centres undefined)
result: 102 % of control
//
molecule: COC1OC(CO)C(O)C(OC)C1OC (centres undefined) (tested in a mixture with another compound)
result: 100 % of control
//
molecule: CCCCCCCCCCC(CCCCCCCCCC)C1CC(C)CCC1C (centres undefined)
result: 94 % of control
//
molecule: COC1C(CO)OC(O)C(N)C1OC (centres undefined)
result: 103 % of control
//
molecule: CC(=O)CCCOC(C)=O
result: 103 % of control
//
molecule: COc1ccc(Cc2cncc3cc(O)c(OC)cc23)cc1O
result: 102 % of control
//
molecule: O/N=C/c1ccccc1
result: 101 % of control
//
molecule: Nc1cccc[n+]1CC(O)C(=O)[O-] (centres undefined)
result: 98 % of control
//
molecule: COC1(OC)C(Cl)=C(Cl)C2C1C1(Cl)C(Cl)=C(Cl)C2(Cl)C1(OC)OC (centres undefined)
result: 106 % of control
//
molecule: CN(C)CCNCc1ccc2c(c1)OCO2
result: 102 % of control
//
molecule: CNC(=O)c1cccc2ccccc12
result: 100 % of control
//
molecule: O=C(O)CC1=C(c2ccc3ccccc3c2)CCC1=O
result: 98 % of control
//
molecule: CC1=CC(=O)CC(C)C2CC(C(C)C)CC12 (centres undefined)
result: 101 % of control
//
molecule: OCC1OC(Oc2ccc(O)cc2)C(O)C(O)C1O (centres undefined)
result: 101 % of control
//
molecule: CN(C)B(B(N(C)C)N(C)C)N(C)C
result: 105 % of control
//
molecule: O=C1CSC2(CCN(Cc3ccccc3)CC2)O1
result: 98 % of control
//
molecule: O=[N+]([O-])O.[Sc]
result: 100 % of control
//
molecule: Cc1c(O)c(Br)c(C)c(O)c1Br (tested in a mixture with another compound)
result: 98 % of control
//
molecule: O=C(O)CN(CC(=O)O)Cc1ccccc1
result: 103 % of control

* * *

system: CD2F1 mice, L1210 leukemia ip, survival T/C; assay: NCI In Vivo Anticancer Drug Screen. Data for tumor model L1210 Leukemia (intraperitoneal) in CD2F1 (CDF1) mice; conditions: endpoint: mean survival time; dose: 200.0 mg/kg/injection; schedule: Q01DX001 (ip); vehicle: saline with Tween-80; higher = longer survival
Toxic doses and inconclusive results are not listed.
testReadout: T/C

molecule: CC(N)(CCOCc1ccccc1)C(=O)O (stereo not given)
result: 96 % of control

molecule: CC1Cc2c(N)cccc2C1=O (stereo not given)
result: 87 % of control

molecule: O=C(/C=C\c1ccc([N+]([O-])=Nc2ccc(/C=C/C(=O)c3ccccc3)cc2)cc1)c1ccccc1
result: 86 % of control

molecule: COc1ccc2[nH]c(=O)oc(=O)c2c1
result: 107 % of control

molecule: O=C(c1ccccc1)C(c1ccccc1)(c1ccccc1)c1ccccc1
result: 89 % of control
